Data export: pKi values recorded with UniProtKB P33535.
Sequence (P33535 whole entry): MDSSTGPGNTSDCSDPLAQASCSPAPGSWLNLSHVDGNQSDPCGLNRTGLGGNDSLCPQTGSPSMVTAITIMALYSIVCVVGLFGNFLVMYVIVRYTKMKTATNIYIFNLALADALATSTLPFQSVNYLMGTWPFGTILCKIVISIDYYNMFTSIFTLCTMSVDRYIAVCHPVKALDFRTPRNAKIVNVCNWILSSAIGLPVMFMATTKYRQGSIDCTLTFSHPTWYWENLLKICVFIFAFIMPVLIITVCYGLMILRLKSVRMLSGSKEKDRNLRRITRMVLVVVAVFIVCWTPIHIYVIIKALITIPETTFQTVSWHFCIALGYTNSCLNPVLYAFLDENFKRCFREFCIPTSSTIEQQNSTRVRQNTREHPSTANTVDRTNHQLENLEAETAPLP
Scale note: pKi = -log10(concentration in M).

# query: pKi of entry C[C@@H](NC(=O)[C@@H](N)Cc1ccc(O)cc1)C(=O)NCC(=O)N[C@@H](Cc1c[nH]c2ccccc12)C(=O)N[C@@H](Cc1ccccc1)C(N)=O
7.88

// repeat for C[C@@H](NC(=O)[C@H](Cc1ccc(O)cc1)NC(=N)N)C(=O)NCC(=O)N[C@@H](Cc1c[nH]c2ccccc12)C(=O)N[C@@H](Cc1ccc(Cl)cc1)C(N)=O and report
8.49

// repeat for C[C@@H](NC(=O)[C@@H](N)Cc1ccc(O)cc1)C(=O)NCC(=O)N[C@@H](Cc1c[nH]c2ccccc12)C(=O)N[C@@H](Cc1ccc(Cl)cc1)C(N)=O and report
8.11

// repeat for C[C@@H](NC(=O)[C@H](Cc1ccc(O)cc1)NC(=N)N)C(=O)NCC(=O)N[C@@H](Cc1c[nH]c2ccccc12)C(=O)N[C@@H](Cc1ccccc1)C(N)=O and report
8.74

* * *

- Species on record: Rattus norvegicus
- Test Protocol: Selectivity ratio of Ki from delta opioid receptor in Wistar rat brain membranes to Ki from mu opioid receptor in Wistar rat brain membranes
- Type: cell membranes
Give measured Ratio Ki for each item. Keep answers brief.

# query: Ratio Ki of entry C[C@@H](NC(=O)[C@@H](N)Cc1ccc(O)cc1)C(=O)NCC(=O)N[C@@H](Cc1c[nH]c2ccccc12)C(=O)N[C@@H](Cc1ccc(Cl)cc1)C(N)=O
528

// repeat for C[C@@H](NC(=O)[C@@H](N)Cc1ccc(O)cc1)C(=O)NCC(=O)N[C@@H](Cc1c[nH]c2ccccc12)C(=O)N[C@@H](Cc1ccccc1)C(N)=O and report
305

// repeat for C[C@@H](NC(=O)[C@H](Cc1ccc(O)cc1)NC(=N)N)C(=O)NCC(=O)N[C@@H](Cc1c[nH]c2ccccc12)C(=O)N[C@@H](Cc1ccccc1)C(N)=O and report
2140

// repeat for C[C@@H](NC(=O)[C@H](Cc1ccc(O)cc1)NC(=N)N)C(=O)NCC(=O)N[C@@H](Cc1c[nH]c2ccccc12)C(=O)N[C@@H](Cc1ccc(Cl)cc1)C(N)=O and report
635

* * *

- Test Protocol: Half life in Kunming mouse 15% brain homogenate at 500 uM by RP-HPLC analysis
- Assay type: ADME, tissue-based
Give measured half-life at 500 µM for each item. Keep answers brief.
Express the result in h but write the number alone.

# query: half-life at 500 µM of entry C[C@@H](NC(=O)[C@H](Cc1ccc(O)cc1)NC(=N)N)C(=O)NCC(=O)N[C@@H](Cc1c[nH]c2ccccc12)C(=O)N[C@@H](Cc1ccc(Cl)cc1)C(N)=O
7.25

// repeat for C[C@@H](NC(=O)[C@@H](N)Cc1ccc(O)cc1)C(=O)NCC(=O)N[C@@H](Cc1c[nH]c2ccccc12)C(=O)N[C@@H](Cc1ccccc1)C(N)=O and report
3.66

// repeat for C[C@@H](NC(=O)[C@@H](N)Cc1ccc(O)cc1)C(=O)NCC(=O)N[C@@H](Cc1c[nH]c2ccccc12)C(=O)N[C@@H](Cc1ccc(Cl)cc1)C(N)=O and report
4.2

// repeat for C[C@@H](NC(=O)[C@H](Cc1ccc(O)cc1)NC(=N)N)C(=O)NCC(=O)N[C@@H](Cc1c[nH]c2ccccc12)C(=O)N[C@@H](Cc1ccccc1)C(N)=O and report
7.4
